# assayComment: in vivo
# conditionLabel: rat, sc
parameter: ED50

> print(dat)
                                   compound   result
1  CO[C@@]12CC[C@H](NCC(=O)O)[C@@H]3Oc4c(O)ccc5c4[C@@]31CCN(C)C2C5  1 mg/kg

Required: ED50, one value per compound below.
1. CO[C@@]12CC[C@@H](NCC(=O)O)[C@@H]3Oc4c(O)ccc5c4[C@@]31CCN(C)C2C5
2. CN1CC[C@]23c4c5ccc(O)c4O[C@H]2[C@@H](O)C=C[C@H]3[C@H]1C5 [Morphine, morphine, reference compound]

result:
["0.5 mg/kg", "2.8 mg/kg"]
